Assay: Solubility of the compound in saline/PEG400 (80/20% V/V) at pH 7.4
Assay type: physicochemical
The entries below are paired with their reported solubility.

C[C@H]1CCC/C=C/[C@@H]2C[C@H](O)C[C@H]2[C@H](O)/C=C/C(=O)O1
< 1000 µg/mL
C[C@H]1CCC/C=C/[C@@H]2C[C@H](OC(=O)OCc3cccnc3)C[C@H]2[C@H](O)/C=C/C(=O)O1
< 1000 µg/mL

For C[C@H]1CCC/C=C/[C@@H]2C[C@H](OC(=O)c3cccnc3)C[C@H]2[C@H](O)/C=C/C(=O)O1 the compound record lists solubility as < 1000 µg/mL

Every entry's value here was drawn from ChEMBL document CHEMBL5113532.
